The measured values listed here are drawn from patent US11548870B2.

TARGET OR SYSTEM: Ikaros (Homo sapiens)
Construct: fluorescently labelled antibodies against Helios and Ikaros; endogenous in cells; host or cells: Jurkat cells
Sequence (Q96SW2 whole entry partner): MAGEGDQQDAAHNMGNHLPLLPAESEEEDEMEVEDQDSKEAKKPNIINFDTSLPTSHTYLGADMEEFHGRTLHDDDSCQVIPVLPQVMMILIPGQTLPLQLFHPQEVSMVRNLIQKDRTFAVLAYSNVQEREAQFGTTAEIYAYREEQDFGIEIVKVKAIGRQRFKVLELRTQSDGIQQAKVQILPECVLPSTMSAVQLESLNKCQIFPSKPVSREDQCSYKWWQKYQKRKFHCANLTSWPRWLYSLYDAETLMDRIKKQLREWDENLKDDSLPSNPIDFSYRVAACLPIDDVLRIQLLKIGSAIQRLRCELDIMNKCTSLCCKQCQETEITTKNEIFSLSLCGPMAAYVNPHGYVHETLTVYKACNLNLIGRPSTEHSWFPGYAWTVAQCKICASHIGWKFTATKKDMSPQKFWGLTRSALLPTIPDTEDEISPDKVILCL
Sequence (Q16531 whole entry partner): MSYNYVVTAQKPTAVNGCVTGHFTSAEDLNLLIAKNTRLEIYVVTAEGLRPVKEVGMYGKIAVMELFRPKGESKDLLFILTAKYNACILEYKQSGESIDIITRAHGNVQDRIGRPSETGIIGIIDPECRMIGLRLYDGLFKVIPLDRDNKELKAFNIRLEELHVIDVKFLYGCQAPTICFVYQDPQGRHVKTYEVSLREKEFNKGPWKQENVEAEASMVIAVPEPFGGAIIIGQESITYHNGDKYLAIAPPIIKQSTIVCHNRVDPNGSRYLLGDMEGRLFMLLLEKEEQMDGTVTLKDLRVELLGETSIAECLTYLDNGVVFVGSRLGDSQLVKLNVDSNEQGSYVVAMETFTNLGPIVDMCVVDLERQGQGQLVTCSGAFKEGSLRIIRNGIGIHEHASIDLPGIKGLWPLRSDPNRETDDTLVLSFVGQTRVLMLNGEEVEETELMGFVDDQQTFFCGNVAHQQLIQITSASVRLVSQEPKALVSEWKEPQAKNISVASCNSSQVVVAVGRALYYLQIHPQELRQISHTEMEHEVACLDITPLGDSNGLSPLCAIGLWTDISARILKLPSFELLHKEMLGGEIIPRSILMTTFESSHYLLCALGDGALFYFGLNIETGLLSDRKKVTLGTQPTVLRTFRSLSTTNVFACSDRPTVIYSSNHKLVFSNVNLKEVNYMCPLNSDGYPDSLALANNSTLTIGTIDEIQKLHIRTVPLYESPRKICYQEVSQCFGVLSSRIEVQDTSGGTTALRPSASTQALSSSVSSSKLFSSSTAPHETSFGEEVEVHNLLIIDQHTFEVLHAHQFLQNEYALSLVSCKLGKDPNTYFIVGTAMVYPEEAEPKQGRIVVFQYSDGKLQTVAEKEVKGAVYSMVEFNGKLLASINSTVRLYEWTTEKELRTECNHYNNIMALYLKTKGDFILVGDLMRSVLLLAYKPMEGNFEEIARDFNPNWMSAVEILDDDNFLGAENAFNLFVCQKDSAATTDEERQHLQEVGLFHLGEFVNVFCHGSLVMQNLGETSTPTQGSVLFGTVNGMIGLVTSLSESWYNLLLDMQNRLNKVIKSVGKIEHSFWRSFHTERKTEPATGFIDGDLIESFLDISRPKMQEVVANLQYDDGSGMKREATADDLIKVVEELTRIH
Sequence (Q13422 whole entry): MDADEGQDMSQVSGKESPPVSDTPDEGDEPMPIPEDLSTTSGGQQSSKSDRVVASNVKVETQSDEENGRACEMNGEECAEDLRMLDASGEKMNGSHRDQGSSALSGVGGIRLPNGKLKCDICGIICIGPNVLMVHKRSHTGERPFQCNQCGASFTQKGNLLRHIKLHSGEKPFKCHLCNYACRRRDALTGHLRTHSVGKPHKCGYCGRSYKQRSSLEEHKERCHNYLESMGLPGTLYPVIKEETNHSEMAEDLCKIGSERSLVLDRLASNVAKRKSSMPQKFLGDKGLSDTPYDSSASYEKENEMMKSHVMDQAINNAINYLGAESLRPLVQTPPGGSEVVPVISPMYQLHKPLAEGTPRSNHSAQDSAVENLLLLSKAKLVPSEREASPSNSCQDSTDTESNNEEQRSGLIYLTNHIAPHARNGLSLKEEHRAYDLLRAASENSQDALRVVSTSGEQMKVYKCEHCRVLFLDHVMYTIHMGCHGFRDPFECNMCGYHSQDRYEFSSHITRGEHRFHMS
ASSAY METHOD TEXT: Helios Cellular Degradation Assay, Ikaros readout (flow cytometry, Ikaros-Alexa488 antibody staining, 72 h)
Assay type: cell-based
CONDITIONS: Jurkat, Jurkat cells, 72 h incubation, flow cytometry; read-out: Ikaros Dmax
Output Condition met for records whose Dmax is lower than 10%, Condition not met for records at or above 10%.

O=C1CCC(N2Cc3cc(-c4cc(CNCCCc5ccccc5)ccn4)ccc3C2=O)C(=O)N1 (stereo not shown) :: Condition met
CCCN(Cc1ccnc(-c2ccc3c(c2)CN(C2CCC(=O)NC2=O)C3=O)c1)CC1CC1 (stereo not shown) :: Condition met
CN(C)[C@H]1CCN(Cc2ccnc(-c3ccc4c(c3)CN(C3CCC(=O)NC3=O)C4=O)c2)C1 (stereo partly shown) :: Condition met
C[C@@H](NCc1ccnc(-c2ccc3c(c2)CN(C2CCC(=O)NC2=O)C3=O)c1)c1ccccc1 (stereo partly shown) :: Condition met
O=C1CCC(N2Cc3cc(-c4cc(CNCc5csc(-c6ccccc6)n5)ccn4)ccc3C2=O)C(=O)N1 (stereo not shown) :: Condition met
COC(=O)CCNCc1ccnc(-c2ccc3c(c2)CN(C2CCC(=O)NC2=O)C3=O)c1 (stereo not shown) :: Condition met
O=C1CCC(N2Cc3cc(-c4cc(CNCC5CCCO5)ccn4)ccc3C2=O)C(=O)N1 (stereo not shown) :: Condition met
CC(CCO)N(C)Cc1ccnc(-c2ccc3c(c2)CN(C2CCC(=O)NC2=O)C3=O)c1 (stereo not shown) :: Condition met

Determine if O=C1CCC(N2Cc3cc(-c4cc(CNCCc5nc6ccccc6s5)ccn4)ccc3C2=O)C(=O)N1 (stereo not shown) shows Dmax strictly lower than 10%.
Condition not met

Determine if CN1CCC[C@H]1CC1CCCCN1Cc1ccnc(-c2ccc3c(c2)CN(C2CCC(=O)NC2=O)C3=O)c1 (stereo partly shown) shows Dmax strictly lower than 10%.
Condition met

Determine if CN1CCC(N(C)Cc2ccnc(-c3ccc4c(c3)CN(C3CCC(=O)NC3=O)C4=O)c2)C1 (stereo not shown) shows Dmax strictly lower than 10%.
Condition met

Determine if CC1CCCC(C)N1Cc1ccnc(-c2ccc3c(c2)CN(C2CCC(=O)NC2=O)C3=O)c1 (stereo not shown) shows Dmax strictly lower than 10%.
Condition not met

Determine if O=C1CCC(N2Cc3cc(-c4cc(CNCC5CCCCC5)ccn4)ccc3C2=O)C(=O)N1 (stereo not shown) shows Dmax strictly lower than 10%.
Condition not met

Determine if COCCN(C)Cc1ccnc(-c2ccc3c(c2)CN(C2CCC(=O)NC2=O)C3=O)c1 (stereo not shown) shows Dmax strictly lower than 10%.
Condition not met

Determine if C[C@@H]1CCCCN1Cc1ccnc(-c2ccc3c(c2)CN(C2CCC(=O)NC2=O)C3=O)c1 (stereo partly shown) shows Dmax strictly lower than 10%.
Condition met

Determine if CCCNCc1ccnc(-c2ccc3c(c2)CN(C2CCC(=O)NC2=O)C3=O)c1 (stereo not shown) shows Dmax strictly lower than 10%.
Condition met

Determine if O=C1CCC(N2Cc3cc(-c4cc(CN5CCN(c6ccncc6)CC5)ccn4)ccc3C2=O)C(=O)N1 (stereo not shown) shows Dmax strictly lower than 10%.
Condition met

Determine if COCCNCc1ccnc(-c2ccc3c(c2)CN(C2CCC(=O)NC2=O)C3=O)c1 (stereo not shown) shows Dmax strictly lower than 10%.
Condition not met

Determine if CN(Cc1ccc(C(F)(F)F)cc1)Cc1ccnc(-c2ccc3c(c2)CN(C2CCC(=O)NC2=O)C3=O)c1 (stereo not shown) shows Dmax strictly lower than 10%.
Condition met

Determine if O=C1CCC(N2Cc3cc(-c4cc(CN5CCN(c6cnccn6)CC5)ccn4)ccc3C2=O)C(=O)N1 (stereo not shown) shows Dmax strictly lower than 10%.
Condition not met

Determine if O=C1CCC(N2Cc3cc(-c4cc(CNC5CCN(Cc6ccccc6)C5)ccn4)ccc3C2=O)C(=O)N1 (stereo not shown) shows Dmax strictly lower than 10%.
Condition met

Determine if O=C1CCC(N2Cc3cc(-c4cc(CN5CC[C@H](c6ccccc6)C5)ccn4)ccc3C2=O)C(=O)N1 (stereo partly shown) shows Dmax strictly lower than 10%.
Condition not met

Determine if CCCCN(C)Cc1ccnc(-c2ccc3c(c2)CN(C2CCC(=O)NC2=O)C3=O)c1 (stereo not shown) shows Dmax strictly lower than 10%.
Condition met

Determine if CC(=O)N[C@H]1CCN(Cc2ccnc(-c3ccc4c(c3)CN(C3CCC(=O)NC3=O)C4=O)c2)C1 (stereo partly shown) shows Dmax strictly lower than 10%.
Condition not met

Determine if CN(C)C1CCC(NCc2ccnc(-c3ccc4c(c3)CN(C3CCC(=O)NC3=O)C4=O)c2)CC1 (stereo not shown) shows Dmax strictly lower than 10%.
Condition not met

Determine if O=C1CCC(N2Cc3cc(-c4cc(CN5CCC5c5ccccc5)ccn4)ccc3C2=O)C(=O)N1 (stereo not shown) shows Dmax strictly lower than 10%.
Condition not met

Determine if Cc1cccc(CNCc2ccnc(-c3ccc4c(c3)CN(C3CCC(=O)NC3=O)C4=O)c2)c1 (stereo not shown) shows Dmax strictly lower than 10%.
Condition met
